# measured_target: GCN2 (Mus musculus, UniProt Q9QZ05)
# Construct: endogenous in cells
# Sequence (Q9QZ05 whole entry): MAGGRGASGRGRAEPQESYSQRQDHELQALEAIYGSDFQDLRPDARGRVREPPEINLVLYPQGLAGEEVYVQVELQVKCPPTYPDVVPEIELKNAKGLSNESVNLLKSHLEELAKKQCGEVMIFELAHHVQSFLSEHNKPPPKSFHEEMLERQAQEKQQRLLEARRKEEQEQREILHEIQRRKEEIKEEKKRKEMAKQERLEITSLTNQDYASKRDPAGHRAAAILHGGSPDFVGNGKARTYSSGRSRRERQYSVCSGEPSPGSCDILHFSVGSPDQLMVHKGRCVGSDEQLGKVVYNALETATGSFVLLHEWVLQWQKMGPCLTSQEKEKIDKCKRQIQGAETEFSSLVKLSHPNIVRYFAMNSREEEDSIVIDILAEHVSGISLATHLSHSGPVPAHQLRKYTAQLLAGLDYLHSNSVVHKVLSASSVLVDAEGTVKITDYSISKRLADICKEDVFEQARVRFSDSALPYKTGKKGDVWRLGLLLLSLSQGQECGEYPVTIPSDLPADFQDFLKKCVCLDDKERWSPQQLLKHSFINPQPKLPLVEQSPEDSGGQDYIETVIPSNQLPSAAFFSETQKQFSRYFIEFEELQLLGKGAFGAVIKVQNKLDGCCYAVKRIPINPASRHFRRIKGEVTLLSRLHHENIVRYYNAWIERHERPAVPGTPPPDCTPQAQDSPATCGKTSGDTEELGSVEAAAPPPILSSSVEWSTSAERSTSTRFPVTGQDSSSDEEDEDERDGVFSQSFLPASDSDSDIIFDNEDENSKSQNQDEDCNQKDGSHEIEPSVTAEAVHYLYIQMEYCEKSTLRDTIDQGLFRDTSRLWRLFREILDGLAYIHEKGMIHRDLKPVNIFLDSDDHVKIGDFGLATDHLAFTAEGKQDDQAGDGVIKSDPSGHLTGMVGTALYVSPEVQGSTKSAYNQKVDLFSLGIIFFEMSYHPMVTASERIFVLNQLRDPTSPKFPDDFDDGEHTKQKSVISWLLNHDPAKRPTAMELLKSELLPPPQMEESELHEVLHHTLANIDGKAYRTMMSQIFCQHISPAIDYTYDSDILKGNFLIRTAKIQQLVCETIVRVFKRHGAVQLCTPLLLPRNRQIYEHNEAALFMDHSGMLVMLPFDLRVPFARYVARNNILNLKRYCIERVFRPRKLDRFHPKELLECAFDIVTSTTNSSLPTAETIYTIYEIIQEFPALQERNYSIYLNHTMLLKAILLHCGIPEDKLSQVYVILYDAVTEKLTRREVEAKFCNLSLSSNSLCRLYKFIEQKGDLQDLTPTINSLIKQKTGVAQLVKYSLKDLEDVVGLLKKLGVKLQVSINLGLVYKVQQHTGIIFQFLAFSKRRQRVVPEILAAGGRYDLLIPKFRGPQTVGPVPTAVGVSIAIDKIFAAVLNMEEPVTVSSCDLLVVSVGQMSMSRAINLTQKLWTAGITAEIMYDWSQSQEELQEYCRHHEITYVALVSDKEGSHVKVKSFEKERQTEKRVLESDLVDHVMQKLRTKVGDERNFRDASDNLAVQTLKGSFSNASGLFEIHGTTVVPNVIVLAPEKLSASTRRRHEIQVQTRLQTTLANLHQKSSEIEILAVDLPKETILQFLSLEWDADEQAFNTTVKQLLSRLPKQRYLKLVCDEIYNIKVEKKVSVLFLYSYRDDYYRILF
# experiment_description: GCN2 inhibition cell-based assay (P-GCN2 Western blot in Neuro 2a cells)
# run_parameters: amino acid deprived media (DMEM lacking L-cysteine and methionine), 3 hours
pIC50: −log10 of the molar value.
property_name: pIC50

Task item: Bench note: what pIC50 did `COc1ncc(Cl)cc1-c1nnc(-c2ccc(F)c(C#Cc3cnc(N)nc3)c2F)o1` show?
Reply: < 6.00

Task item: Bench note: what pIC50 did `Nc1ncc2cc(-c3c(F)ccc(NS(=O)(=O)c4ccc(Cl)cc4C(F)(F)F)c3F)ccc2n1` show?
Reply: 7.00 to 8.00

Task item: Bench note: what pIC50 did `Cc1cccc(S(=O)(=O)Nc2ccc(F)c(-c3ccc4nc(N)ncc4c3)c2F)c1` show?
Reply: < 6.00

Task item: Bench note: what pIC50 did `Nc1ncc2cc(-c3c(F)ccc(NS(=O)(=O)c4ccsc4)c3F)ccc2n1` show?
Reply: < 6.00

Task item: Bench note: what pIC50 did `COc1ncc(Cl)cc1S(=O)(=O)Nc1ccc(Cl)c(-c2ccc3nc(N)ncc3c2)c1Cl` show?
Reply: 7.00 to 8.00

Task item: Bench note: what pIC50 did `Nc1ncc2cc(-c3c(F)ccc(NS(=O)(=O)c4cccc(C(F)(F)F)c4)c3F)ccc2n1` show?
Reply: < 6.00

Task item: Bench note: what pIC50 did `Nc1ncc2cc(-c3c(F)ccc(NS(=O)(=O)c4ccc5occc5c4)c3F)ccc2n1` show?
Reply: 6.00 to 7.00

Task item: Bench note: what pIC50 did `Nc1ncc2cc(-c3c(F)ccc(NS(=O)(=O)c4cc(Cl)cc(CO)c4Cl)c3F)ccc2n1` show?
Reply: > 8.00

Task item: Bench note: what pIC50 did `Nc1ncc2cc(-c3c(F)ccc(NS(=O)(=O)c4cc(C(F)(F)F)cc(C(F)(F)F)c4)c3F)ccc2n1` show?
Reply: 7.00 to 8.00

Task item: Bench note: what pIC50 did `Cc1ccc(S(=O)(=O)Nc2ccc(F)c(-c3ccc4nc(N)ncc4c3)c2F)cc1F` show?
Reply: 7.00 to 8.00

Task item: Bench note: what pIC50 did `COc1ncc(Cl)cc1S(=O)(=O)Nc1ccc(F)c(-c2ccc3nc(N[C@@H](CO)c4ccccc4)ncc3c2)c1F` show?
Reply: 6.00 to 7.00

Task item: Bench note: what pIC50 did `O=S(=O)(Nc1ccc(F)c(-c2ccc3nc(N[C@H]4CC[C@H](O)CC4)ncc3c2)c1F)c1cc(Cl)ccc1Cl` show?
Reply: > 8.00

Task item: Bench note: what pIC50 did `Nc1ncc2cc(-c3c(F)ccc(NS(=O)(=O)c4cc(C(F)(F)F)ccc4F)c3F)ccc2n1` show?
Reply: 6.00 to 7.00

Task item: Bench note: what pIC50 did `Nc1ccc2cc(-c3c(F)ccc(NS(=O)(=O)c4cc(Cl)ccc4Cl)c3F)ccc2n1` show?
Reply: < 6.00

Task item: Bench note: what pIC50 did `COc1ncc(Cl)cc1C(=O)Nc1ccc(F)c(C#Cc2cnc(N)nc2)c1F` show?
Reply: < 6.00

Task item: Bench note: what pIC50 did `Nc1ncc2cc(-c3c(F)ccc(NS(=O)(=O)c4ccc5c(c4)CCC5)c3F)ccc2n1` show?
Reply: < 6.00

Task item: Bench note: what pIC50 did `COc1ccc(S(=O)(=O)Nc2ccc(F)c(-c3ccc4nc(N)ncc4c3)c2F)cc1C` show?
Reply: < 6.00

Task item: Bench note: what pIC50 did `COc1ncc(Cl)cc1S(=O)(=O)Nc1ccc(F)c(-c2ccc3nc(NC(CO)CO)ncc3c2)c1F` show?
Reply: 7.00 to 8.00

Task item: Bench note: what pIC50 did `Nc1ncnc2ccc(-c3c(F)ccc(NS(=O)(=O)c4cc(Cl)ccc4Cl)c3F)cc12` show?
Reply: < 6.00

Task item: Bench note: what pIC50 did `COc1ncc(Cl)cc1S(=O)(=O)Nc1ccc(F)c(-c2ccc3nc(N4CCCCC4)ncc3c2)c1F` show?
Reply: 7.00 to 8.00

Task item: Bench note: what pIC50 did `COc1ncc(Cl)cc1S(=O)(=O)Nc1ccc(F)c(-c2ccc3nc(N[C@@H](C)CO)ncc3c2)c1F` show?
Reply: > 8.00

Task item: Bench note: what pIC50 did `Nc1ncc2cc(-c3ccc(F)c(NS(=O)(=O)c4cc(Cl)ccc4Cl)c3F)ccc2n1` show?
Reply: < 6.00

Task item: Bench note: what pIC50 did `COc1ncc(Cl)cc1S(=O)(=O)Nc1cccc(-c2ccc3nc(N)ncc3c2)c1C` show?
Reply: > 8.00

Task item: Bench note: what pIC50 did `Nc1ncc2cc(-c3c(F)ccc(NS(=O)(=O)c4ccc(Cl)c(Cl)c4)c3F)ccc2n1` show?
Reply: 6.00 to 7.00

Task item: Bench note: what pIC50 did `COc1ncc(Cl)cc1S(=O)(=O)Nc1ccc(F)c(-c2ccc3nc(N)ncc3c2)c1F` show?
Reply: > 8.00

Task item: Bench note: what pIC50 did `Nc1ncc2cc(-c3c(F)ccc(NS(=O)(=O)c4cccs4)c3F)ccc2n1` show?
Reply: < 6.00

Task item: Bench note: what pIC50 did `COc1ncc(Cl)cc1S(=O)(=O)Nc1ccc(F)c(-c2ccc3nc(N[C@H](CO)c4ccccc4)ncc3c2)c1F` show?
Reply: 6.00 to 7.00

Task item: Bench note: what pIC50 did `COc1ncc(Cl)cc1S(=O)(=O)Nc1ccc(F)c(-c2ccc3cnc(N)nc3c2)c1F` show?
Reply: < 6.00

Task item: Bench note: what pIC50 did `Cc1cc(S(=O)(=O)Nc2ccc(F)c(-c3ccc4nc(N)ncc4c3)c2F)c(C)cc1Cl` show?
Reply: 7.00 to 8.00

Task item: Bench note: what pIC50 did `COc1ncc(Cl)cc1S(=O)(=O)Nc1ccc(F)c(-c2cccc3nc(N)ncc23)c1F` show?
Reply: < 6.00

Task item: Bench note: what pIC50 did `Nc1ncc2cc(-c3c(F)ccc(NS(=O)(=O)c4cc(Cl)cc(Cl)c4)c3F)ccc2n1` show?
Reply: > 8.00

---

# measured_target: GCN2 (Mus musculus, UniProt Q9QZ05)
# Construct: endogenous in cells; host or cells: Neuro 2a (N2a)
# experiment_description: GCN2 inhibition cell-based assay (P-GCN2 Western blot in Neuro 2a cells)
# run_parameters: amino acid deprived media (DMEM lacking L-cysteine and methionine), 3 hours
Exercise: state measured IC50 for each of the compounds provided.

Task item: Bench note: what IC50 did `CC(C)c1cccc(S(=O)(=O)Nc2ccc(F)c(-c3ccc4nc(N)ncc4c3)c2F)c1` show?
Reply: > 1000 nM

Task item: Bench note: what IC50 did `COc1ncc(Cl)cc1S(=O)(=O)Nc1ccc(F)c(-c2ccc3nc(N[C@H](C)CO)ncc3c2)c1F` show?
Reply: < 10 nM

Task item: Bench note: what IC50 did `Nc1ncc2c(-c3c(F)ccc(NS(=O)(=O)c4cc(Cl)ccc4Cl)c3F)cccc2n1` show?
Reply: > 1000 nM

Task item: Bench note: what IC50 did `O=S(=O)(Nc1ccc(F)c(-c2cc(F)c3[nH]cnc3c2)c1F)c1cc(Cl)ccc1Cl` show?
Reply: > 1000 nM

Task item: Bench note: what IC50 did `COc1ncc(Cl)cc1S(=O)(=O)Nc1ccc(F)c(-c2ccc3nc(N(C)C)ncc3c2)c1F` show?
Reply: 100 to 1000 nM

Task item: Bench note: what IC50 did `Cc1cc(C)cc(S(=O)(=O)Nc2ccc(F)c(-c3ccc4nc(N)ncc4c3)c2F)c1` show?
Reply: < 10 nM

Task item: Bench note: what IC50 did `COc1ccc(OC)c(S(=O)(=O)Nc2ccc(F)c(-c3ccc4nc(N)ncc4c3)c2F)c1` show?
Reply: > 1000 nM

Task item: Bench note: what IC50 did `COc1ccc(F)cc1S(=O)(=O)Nc1ccc(F)c(-c2ccc3nc(N)ncc3c2)c1F` show?
Reply: > 1000 nM

Task item: Bench note: what IC50 did `Cc1cc(S(=O)(=O)Nc2ccc(F)c(-c3ccc4nc(N)ncc4c3)c2F)ccc1F` show?
Reply: > 1000 nM
